Where do these numbers come from? They come from ChEMBL document CHEMBL1150001.

# measured.target: Muscarinic acetylcholine receptor M3 (Homo sapiens)
# Format: functional, cell-based, SK-N-SH
# Sequence (P20309 whole entry): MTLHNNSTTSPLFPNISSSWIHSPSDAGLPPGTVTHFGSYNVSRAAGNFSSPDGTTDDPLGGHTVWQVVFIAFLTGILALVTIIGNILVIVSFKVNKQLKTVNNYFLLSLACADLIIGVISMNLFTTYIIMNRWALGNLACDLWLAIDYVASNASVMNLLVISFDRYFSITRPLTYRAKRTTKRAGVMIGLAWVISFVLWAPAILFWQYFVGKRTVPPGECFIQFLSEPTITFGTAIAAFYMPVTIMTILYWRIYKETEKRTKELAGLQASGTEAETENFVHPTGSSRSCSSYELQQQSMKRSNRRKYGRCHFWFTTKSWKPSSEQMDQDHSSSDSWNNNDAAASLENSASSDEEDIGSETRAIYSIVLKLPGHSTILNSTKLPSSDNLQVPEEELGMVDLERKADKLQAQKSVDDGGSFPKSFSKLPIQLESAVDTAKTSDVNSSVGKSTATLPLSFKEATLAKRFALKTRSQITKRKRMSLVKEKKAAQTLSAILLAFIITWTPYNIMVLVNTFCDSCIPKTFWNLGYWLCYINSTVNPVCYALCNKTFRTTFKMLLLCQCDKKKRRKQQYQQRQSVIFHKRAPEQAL
# Description: Effective concentration for MIPA (muscarinic-stimulated inositol phosphate accumulation) activity in SK-N-SH neuroblastoma cells expressing human muscarinic M3 receptor

{"molecule": "Nc1noc(C2CN3CCC2C3)n1 (stereo not drawn)", "unit.abbreviation": "µM", "EC50": 104}
{"molecule": "C#CCC#CCO/N=C1\\CN2CCC1C2 (stereo not drawn)", "unit.abbreviation": "µM", "EC50": 16.4}
{"molecule": "CCO/N=C1\\CN2CCC1C2 (stereo not drawn)", "unit.abbreviation": "µM", "EC50": 8.9}

---

# measured.target: Muscarinic acetylcholine receptor M3 (Homo sapiens, UniProt P20309)
# assay.name: Evaluated for its MIPA (muscarinic-stimulated inositol phosphate accumulation) activity measured in SK-N-SH neuroblastoma cells expressing human muscarinic m3 receptor, compound run at 100 uM;100 uM of carbachol was used
# Assay type: functional, cell-based
# Sequence (P20309 whole entry, looked up): as the sequence (P20309 whole entry) above
Recorded CCh by entry

{"compound": "C(#Cc1ccccc1)CO/N=C1\\CN2CCC1C2 (stereo not drawn)", "measured.target": "Muscarinic acetylcholine receptor M3 (Homo sapiens, UniProt P20309)", "CCh, %": 11}
{"compound": "Nc1noc(C2CN3CCC2C3)n1 (stereo not drawn)", "measured.target": "Muscarinic acetylcholine receptor M3 (Homo sapiens, UniProt P20309)", "CCh, %": 0.269}
{"compound": "C#CCO/N=C1\\CN2CCC1C2 (stereo not drawn)", "measured.target": "Muscarinic acetylcholine receptor M3 (Homo sapiens, UniProt P20309)", "CCh, %": 51}
{"compound": "CCO/N=C1\\CN2CCC1C2 (stereo not drawn)", "measured.target": "Muscarinic acetylcholine receptor M3 (Homo sapiens, UniProt P20309)", "CCh, %": 19}
{"compound": "CCC#CCO/N=C1\\CN2CCC1C2 (stereo not drawn)", "measured.target": "Muscarinic acetylcholine receptor M3 (Homo sapiens, UniProt P20309)", "CCh, %": 56}
{"compound": "CC#CCC#CCO/N=C1\\CN2CCC1C2 (stereo not drawn)", "measured.target": "Muscarinic acetylcholine receptor M3 (Homo sapiens, UniProt P20309)", "CCh, %": 2}
{"compound": "CCCO/N=C1\\CN2CCC1C2 (stereo not drawn)", "measured.target": "Muscarinic acetylcholine receptor M3 (Homo sapiens, UniProt P20309)", "CCh, %": 3}
{"compound": "CO/N=C1\\CN2CCC1C2 (stereo not drawn)", "measured.target": "Muscarinic acetylcholine receptor M3 (Homo sapiens, UniProt P20309)", "CCh, %": 53}

---

# measured.target: Muscarinic receptor M1 and M2 (Rattus norvegicus, UniProt P08482+P10980)
# Sequence (P08482 whole entry): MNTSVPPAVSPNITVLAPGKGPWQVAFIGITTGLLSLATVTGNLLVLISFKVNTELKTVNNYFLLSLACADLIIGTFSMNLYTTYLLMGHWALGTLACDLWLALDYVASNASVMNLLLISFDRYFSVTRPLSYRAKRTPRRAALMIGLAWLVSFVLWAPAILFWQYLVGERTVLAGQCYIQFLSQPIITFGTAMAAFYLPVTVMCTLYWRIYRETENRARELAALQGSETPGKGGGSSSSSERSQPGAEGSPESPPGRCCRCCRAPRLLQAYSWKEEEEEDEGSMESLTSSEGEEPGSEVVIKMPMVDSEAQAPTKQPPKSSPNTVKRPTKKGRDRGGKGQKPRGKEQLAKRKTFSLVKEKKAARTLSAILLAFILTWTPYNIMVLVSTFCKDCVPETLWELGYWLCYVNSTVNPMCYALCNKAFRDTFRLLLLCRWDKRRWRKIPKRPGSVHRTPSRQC
# Sequence (P10980 whole entry): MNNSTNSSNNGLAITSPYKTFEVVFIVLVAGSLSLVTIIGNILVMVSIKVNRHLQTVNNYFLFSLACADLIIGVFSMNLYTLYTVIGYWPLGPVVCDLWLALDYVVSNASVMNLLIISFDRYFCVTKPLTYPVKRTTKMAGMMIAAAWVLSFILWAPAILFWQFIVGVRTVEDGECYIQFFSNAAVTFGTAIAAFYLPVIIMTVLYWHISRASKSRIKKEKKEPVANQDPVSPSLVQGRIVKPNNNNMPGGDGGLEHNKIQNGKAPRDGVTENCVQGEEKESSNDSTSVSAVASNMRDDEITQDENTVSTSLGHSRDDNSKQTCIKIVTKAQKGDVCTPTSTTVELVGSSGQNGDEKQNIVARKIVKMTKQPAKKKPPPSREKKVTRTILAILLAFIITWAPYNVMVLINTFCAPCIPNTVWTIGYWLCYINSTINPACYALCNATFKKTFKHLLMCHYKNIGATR
# assay.name: Compound was evaluated for its inhibition of [3H]quinuclidinyl benzilate binding to label antagonist site (RQNB) in rat neocortex
metric: log10(IC50) (log10 of the value in µM)

{"compound": "CC#CCC#CCO/N=C1\\CN2CCC1C2 (configuration not stated)", "log10(IC50)": 0.46}
{"compound": "C#CCCO/N=C1\\CN2CCC1C2 (configuration not stated)", "log10(IC50)": 0.99}
{"compound": "CCCCC#CCO/N=C1\\CN2CCC1C2 (configuration not stated)", "log10(IC50)": 0.78}
{"compound": "COCC#CCO/N=C1\\CN2CCC1C2 (configuration not stated)", "log10(IC50)": 1.55}
{"compound": "C#C/C=C/CO/N=C1\\CN2CCC1C2 (configuration not stated)", "log10(IC50)": 1.14}
{"compound": "CO/N=C1\\CN2CCC1C2 (configuration not stated)", "log10(IC50)": 1.39}
